ASSAYED_SYSTEM: T1, human GIP receptor (human, UniProt P48546 22-466)
T1 sequence (looked up): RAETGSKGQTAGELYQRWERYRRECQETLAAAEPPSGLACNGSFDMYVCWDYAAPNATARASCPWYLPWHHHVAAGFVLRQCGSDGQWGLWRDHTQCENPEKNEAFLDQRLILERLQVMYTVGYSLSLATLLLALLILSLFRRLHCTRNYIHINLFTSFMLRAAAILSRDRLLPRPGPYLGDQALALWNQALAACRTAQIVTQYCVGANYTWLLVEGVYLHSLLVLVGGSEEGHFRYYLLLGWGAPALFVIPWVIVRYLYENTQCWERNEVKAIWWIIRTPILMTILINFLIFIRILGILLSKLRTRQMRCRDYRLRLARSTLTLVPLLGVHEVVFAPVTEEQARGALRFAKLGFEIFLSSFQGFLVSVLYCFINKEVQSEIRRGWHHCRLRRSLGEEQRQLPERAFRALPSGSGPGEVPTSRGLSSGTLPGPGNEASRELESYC
ASSAY_TEXT: cell-based or functional assay
*1 amine or outer side, *2 acyl side, *3 side chain or, on linkers, in order; H or OH if unused. Where no end group is shown, it is not given here. Side-chain parts run from the residue outwards. [ ]: non-standard residue; d: D form. The star is where a group is joined. Decanoyl(10-(4-HOOC-PhO)) = O=C(O)c1ccc(OCCCCCCCCCC(=O)*)cc1; αMePhe(2-F) = C[C@](N)(Cc1ccccc1F)C(=O)O; γGlu = O=C(O)[C@H](CCC(=O)[*:2])N[*:1]; αMeY = C[C@](N)(Cc1ccc(O)cc1)C(=O)O; αMeL = CC(C)C[C@](C)(N)C(=O)O; Orn = NCCC[C@H](N)C(=O)O; AEEA = NCCOCCOCC(=O)O; Aib = CC(C)(N)C(=O)O
Parameter threshold = 0.3 nM. Response is condition met when cAMP EC50 (1.0% HSA) meets or exceeds it, else condition not met.

Completed entries (count: 5):
INSERT INTO assay_data (binder, class) VALUES
  ('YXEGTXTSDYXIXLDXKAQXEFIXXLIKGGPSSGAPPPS (Y-Aib-EGT-αMeF(2F)-TSDY-Aib-I-αMeL-LD-Orn-K((2-[2-(2-Amino-ethoxy)-ethoxy]-acetyl)2-CO-(CH2)12-CO2H)AQ-Aib-EFI-(D-Glu)-αMeY-LIK((2-[2-(2-Amino-ethoxy)-ethoxy]-acetyl)2-CO-(CH2)12-CO2H)GGPSSGAPPPS-NH2) [Example 388]', 'condition met'),
  ('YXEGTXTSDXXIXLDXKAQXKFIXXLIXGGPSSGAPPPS (Y-Aib-EGT-αMeF(2F)-TSD-4Pal-Aib-I-αMeL-LD-Orn-K((2-[2-(2-Amino-ethoxy)-ethoxy]-acetyl)3-(γ-Glu)-CO-(CH2)10-CH3)AQ-Aib-K((2-[2-(2-Amino-ethoxy)-ethoxy]-acetyl)3-(γ-Glu)-CO-(CH2)10-CH3)FI-(D-Glu)-αMeY-LI-Orn-GGPSSGAPPPS-NH2) [Example 433]', 'condition not met'),
  ('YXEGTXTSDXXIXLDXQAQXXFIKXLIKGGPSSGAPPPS (Y-Aib-EGT-αMeF(2F)-TSD-4Pal-Aib-I-αMeL-LD-Orn-QAQ-Aib-Orn-FIK((2-[2-(2-Amino-ethoxy)-ethoxy]-acetyl)2-(γ-Glu)-(10-(4-carboxyphenoxy)decanoyl))-αMeY-LIK((2-[2-(2-Amino-ethoxy)-ethoxy]-acetyl)2-(γ-Glu)-(10-(4-carboxyphenoxy)decanoyl))GGPSSGAPPPS-NH2) [Example 440]', 'condition not met'),
  ('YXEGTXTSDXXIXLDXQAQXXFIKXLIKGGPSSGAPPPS (Y-Aib-EGT-αMeF(2F)-TSD-4Pal-Aib-I-αMeL-LD-Orn-QAQ-Aib-Orn-FIK((2-[2-(2-Amino-ethoxy)-ethoxy]-acetyl)3-(γ-Glu)--(10-(4-carboxyphenoxy)decanoyl))-αMeY-LIK((2-[2-(2-Amino-ethoxy)-ethoxy]-acetyl)3-(γ-Glu)--(10-(4-carboxyphenoxy)decanoyl))GGPSSGAPPPS-NH2) [Example 477]', 'condition not met'),
  ('YXEGTXTSDXSIXLDXQAQXXFIKXLIKGGPSSGAPPPS (Y-Aib-EGT-αMeF(2F)-TSD-hY-SI-αMeL-LD-Orn-QAQ-Aib-Orn-FIK((2-[2-(2-Amino-ethoxy)-ethoxy]-acetyl)2-(γ-Glu)-CO-(CH2)12-CO2H)-αMeY-LIK((2-[2-(2-Amino-ethoxy)-ethoxy]-acetyl)2-(γ-Glu)-CO-(CH2)12-CO2H)GGPSSGAPPPS-NH2) [Example 491]', 'condition met');

Check this binder for cAMP EC50 (1.0% HSA) at or above 0.3 nM: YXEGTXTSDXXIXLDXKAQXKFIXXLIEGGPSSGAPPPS (Y-Aib-EGT-αMeF(2F)-TSD-4Pal-Aib-I-αMeL-LD-Orn-K((2-[2-(2-Amino-ethoxy)-ethoxy]-acetyl)2-CO-(CH2)12-CO2H)AQ-Aib-K((2-[2-(2-Amino-ethoxy)-ethoxy]-acetyl)2-CO-(CH2)12-CO2H)FI-(D-Glu)-αMeY-LIEGGPSSGAPPPS-NH2) [Example 384]
condition met

Try this binder too: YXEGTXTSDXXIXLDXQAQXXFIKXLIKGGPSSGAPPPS (Y-Aib-EGT-αMeF(2F)-TSD-4Pal-Aib-I-αMeL-LD-Orn-QAQ-Aib-4Pal-FIK((2-[2-(2-Amino-ethoxy)-ethoxy]-acetyl)2-(γ-Glu)-(10-(4-carboxyphenoxy)decanoyl))-αMeY-LIK((2-[2-(2-Amino-ethoxy)-ethoxy]-acetyl)2-(γ-Glu)-(10-(4-carboxyphenoxy)decanoyl))GGPSSGAPPPS-NH2) [Example 493]
condition met

Try this binder too: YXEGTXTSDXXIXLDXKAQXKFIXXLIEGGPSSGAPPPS (Y-Aib-EGT-αMeF(2F)-TSD-4Pal-Aib-I-αMeL-LD-Orn-K(PEG4-(γ-Glu)-CO-(CH2)12-CO2H)AQ-Aib-K(PEG4-(γ-Glu)-CO-(CH2)12-CO2H)FI-(D-Glu)-αMeY-LIEGGPSSGAPPPS-NH2) [Example 405]
condition met

Try this binder too: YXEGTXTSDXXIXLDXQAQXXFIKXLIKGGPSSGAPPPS (Y-Aib-EGT-αMeF(2F)-TSD-4Pal-Aib-I-αMeL-LD-Orn-QAQ-Aib-Orn-FIK((2-[2-(2-Amino-ethoxy)-ethoxy]-acetyl)2--Trx-(γ-Glu)-CO-(CH2)12-CO2H)-αMeY-LIK(((2-[2-(2-Amino-ethoxy)-ethoxy]-acetyl)2--Trx(γ-Glu)-CO-(CH2)12-CO2H)GGPSSGAPPPS-NH2)) [Example 470]
condition met

Try this binder too: Y[Aib]EGT[αMePhe(2-F)]TSDV[Aib]I[αMeL]LD[Orn]QAQ[Aib]EFIK([AEEA-AEEA-γGlu-Decanoyl(10-(4-HOOC-PhO))])[αMeY]LIK([AEEA-AEEA-γGlu-Decanoyl(10-(4-HOOC-PhO))])GGPSSGAPPPS-NH2 [Example 446]
condition met

Try this binder too: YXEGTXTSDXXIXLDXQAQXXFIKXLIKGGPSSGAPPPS (Y-Aib-EGT-αMeF(2F)-TSD-4Pal-Aib-I-αMeL-LD-Orn-QAQ-Aib-Orn-FIK((2-[2-(2-Amino-ethoxy)-ethoxy]-acetyl)2-(γ-Glu)-CO-(CH2)14-CO2)-αMeY-LIK((2-[2-(2-Amino-ethoxy)-ethoxy]-acetyl)2-(γ-Glu)-CO-(CH2)14-CO2)GGPSSGAPPPS-NH2) [Example 443]
condition met

The origin of these recorded values is patent US20230265151A1.
